Origin of the recorded values: the supplement of paper PMC13380429

Consider the following molecules; for each one, report its inhibition of SARS-CoV-2 cytopathic effect.
Tested on: Vero E6 infected with SARS-CoV-2
Test: inhibition of SARS-CoV-2 cytopathic effect; higher = more antiviral protection, active = above 15
Details: 833.33 nM; 48 h
Give bare numbers, in %.

• c1ccc(COCCCc2c[nH]cn2)cc1 = 0.04
• CC(C)CC(N)=O [isovaleramide] = 0.06
• CC/C(=C(\c1ccccc1)c1ccc(OCCN(C)C)cc1)c1ccccc1 = 0.06

Report inhibition of SARS-CoV-2 cytopathic effect for each item below.
1. CC[C@H](C)[C@H](N)C(=O)O
2. O=C1c2c(O)ccc(O)c2C(=O)c2c(NCCNCCO)ccc(NCCNCCO)c21
3. CCC(=O)NS(=O)(=O)c1ccc(-c2c(-c3ccccc3)noc2C)cc1
4. CCC(C)(C)c1ccc(CC(C)CN2C[C@@H](C)O[C@@H](C)C2)cc1 (stereo not given in full)
5. Cc1ccccc1C(=O)Nc1ccc(C(=O)N2CCCC(O)c3cc(Cl)ccc32)c(C)c1 (stereo not given)

### Response
1: 0.05; 2: -4.43; 3: 1.26; 4: 3.07; 5: -1.55

Please state, for each entry, its recorded inhibition of SARS-CoV-2 cytopathic effect.
1. Cc1cn2c(N)c(Cl)cc(C(=O)NCC3CCN(CC(C)C)CC3)c2n1
2. CCCc1c(OCCCOc2ccc(OCC(=O)O)cc2)ccc(C(C)=O)c1O

### Response
1. 3.33
2. 1.63

Hello, I would appreciate it if you could give inhibition of SARS-CoV-2 cytopathic effect for each entry below.
1. Clc1ccc(C2=CCC[C@H]3CC[C@@H]2N3)cn1
2. Oc1cccc2cccnc12
3. Cn1ncnc1[C@H]1c2n[nH]c(=O)c3cc(F)cc(c23)N[C@@H]1c1ccc(F)cc1
4. OCCN1CCN(CCCN2c3ccccc3C=Cc3ccccc32)CC1

### Response
1: 0.15; 2: 2.84; 3: -0.1; 4: -1.41

Can you give me inhibition of SARS-CoV-2 cytopathic effect for all of these, one by one?
1. CCOC(=O)NNc1nncc2ccccc12
2. CN(C)CC[C@@]1(c2ccc(Cl)cc2)Cc2ccccc2C(=O)O1 (racemic)
3. C[C@]12C=CC(=O)C=C1CC[C@@H]1[C@@H]2[C@@H](O)C[C@@]2(C)[C@H]1CC[C@]2(O)C(=O)COC(=O)CCC(=O)O [prednisolone-hemisuccinate]
4. Cc1ccc(=O)n(-c2ccccc2)c1
5. Cn1cc(-c2cnn3c(N)c(Br)c([C@@H]4CCCNC4)nc23)cn1
6. CC(C)(C)NCC(O)c1ccc(O)c(CO)c1 (stereo not given)

### Response
1. 0.99
2. -2.86
3. 3.76
4. 3.47
5. 2.1
6. -4.97
